Hey, just so you know, these numbers are from paper PMC5540273.

# Test system: CAMK2G;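 also: kd values determined as follow-up on hits from a single-replicate KINOMEscan panel screen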
pKd: −log10 of the molar value.
readout_name: pKd

Prompt: Dear colleague, please send me the reported pKd for COc1cccc(CNC(=O)NC2CCN(c3ccnc(Nc4ccc(F)cc4)n3)C2)c1 (stereo not shown) [GSK1379723] when you can.
Response: < 5.00

###

# Test system: IKK-alpha
# Construct: gene CHUK
# reported_conditions: concentration: 1 μM, replicates: in singlicate; n = 1
Recorded %Inh values for a group of molecules are listed next.
Numeric answer only, unit % assumed.

For orientation, consider the following solved cases.
molecule | %Inh (%)
O=C(Nc1n[nH]c2nc(-c3ccco3)c(Br)cc12)C1CCN(Cc2ccccc2)C1.O=C(O)[C@H](O)[C@@H](O)C(=O)O (stereo not drawn) [SB-742034] | 0
c1ccc(-c2ccnc3[nH]ccc23)cc1 [SB-693578] | 47
Nc1cccc(-c2ccc3c(N)n[nH]c3c2)n1 [GSK2192730] | 0
CC(=O)c1cccc(NC(=O)NC2CCN(c3ccnc(Nc4ccc(F)cc4)n3)C2)c1 (stereo not drawn) [GSK1379710] | 4
CNc1nc(-c2ccc3c(N)n[nH]c3c2)cc(N2C[C@@H](C(=O)Nc3ccccc3)CC[C@H]2C)n1 [GSK2298859] | 0
CS(=O)(=O)CCNCc1nc(-c2ccc3ncnc(Nc4ccc5c(cnn5Cc5ccccc5)c4)c3c2)cs1.Cl.Cl [GW569716] | 38

Could you now look at the following molecule, please?
Prompt: Identify measured %Inh associated with Cc1ccc(NC(=O)Nc2ccccc2)cc1-c1ccc(C(=O)Nc2ccncc2)cc1 [GSK1398471]
Response: 0

###

# System: LIMK2
# reported_conditions: concentration: 1 μM, replicates: in singlicate; n = 1
readout_name: %Inh (%)
The reply should contain only the number, in %.

Please review the following examples before continuing.
molecule | measured_on | reading_unit | %Inh
COC(=O)c1cccc(NC(=O)NC2CCN(c3ccnc(Nc4ccc(F)cc4)n3)C2)c1 (stereo not drawn) | LIMK2 | % | 0
Cc1ccc(NC(=O)c2ccc(Cl)cc2)cc1-c1ccc(C(=O)Nc2ccncc2)cc1 | LIMK2 | % | 3
CSc1ccc(-c2nc3n(c2-c2ccncc2)CCC3)cc1 | LIMK2 | % | 0

Prompt: Supply reported %Inh belonging to this molecule: Fc1ccc(-c2nn3cccc(F)c3c2-c2ccncc2)cc1
Response: 0

Prompt: Write down %Inh measured for item Cc1nccc(-c2c(-c3ccc(F)cc3)ncn2CCCN2CCOCC2)n1.Cl
Response: 10

Prompt: Give the reported value of %Inh for this record: CC(=O)c1c(C)c2cnc(Nc3ccn(C)n3)nc2n(C2CCCC2)c1=O
Response: 0

###

# Tested on: NEK5
# reported_conditions: concentration: 1 μM, replicates: in singlicate; n = 1
Binary call on %Inh with cut-off 30%: strictly below means TRUE, and equality or higher means FALSE.

molecule | measured_on | assigned_category
Cc1ccc(NC(=O)Nc2ccc(Cl)cc2)cc1-c1ccc(C(=O)Nc2ccncc2)cc1 | NEK5 | TRUE
CC(=O)c1cccc(NC(=O)NC2CCN(c3ccnc(Nc4ccc(F)cc4)n3)C2)c1 (centres unmarked) | NEK5 | FALSE
CNC(=O)c1ccc(C)c(-n2c(C)cc(OCc3ccc(F)cc3F)c(Br)c2=O)c1 | NEK5 | TRUE
Cc1c(Cn2c3ccccc3n3c(=O)cc(N4CCOCC4)nc23)cccc1C(F)(F)F | NEK5 | TRUE
O=C1NC(=O)C(c2ccc(Cl)cc2)=C1Nc1cccc(Cl)c1 | NEK5 | TRUE

Prompt: In plain terms, does Cl.Cl.Cl.N#Cc1ccc(CCNc2nccc(-c3cccc(CN4CCNCC4)c3)n2)cc1 come in under 30% for %Inh?
Response: FALSE

Prompt: Please determine if NS(=O)(=O)c1cccc(N/C=C2\C(=O)Nc3ccc(S(=O)(=O)Cc4c(Cl)cccc4Cl)cc32)c1 is below 30% in terms of %Inh.
Response: TRUE

Prompt: Lab note: %Inh threshold 30%. Does this molecule come in strictly under it? CN1c2ccc(-c3ccc(C(N)=O)cc3)cc2-c2[nH]ncc2S1(=O)=O
Response: TRUE
